# Tested on: Wolbachia pipientis
# test_method_notes: Anti-Wolbachia Cell-Based Screen
# Type: functional
# Design: scale not given: in the data most compounds retested in dose-response had high values
# condition_context: 5 µM
In all, about 48,000 compounds went through this assay and about 13,000 (27%) showed an effect of 50% or more. The list shows a part of the results.
Percent Effect: recorded values

molecule	Percent Effect [%]
Cc1ccc(NC(=O)C2CCc3ccccc3N2)cc1 (stereo unspecified)	-1.128
CC(C)c1cc(C2CCCN2C(=O)CN2C(=O)OC(C)(C)C2=O)no1 (stereo unspecified)	116.9
O=C(Nc1ccc(-c2ccccc2)cn1)C1CCN(C(=O)C2CC2)CC1	26.94
CCN(CC)S(=O)(=O)c1ccc(NC(=O)C(C)(C)C)cc1	-6.648
Nc1ncc(-c2cccc(NC(=O)[C@@H]3CCCCN3)c2)cn1	116.6
Cc1cc(C2CCCCN2C(=O)CN2CC3(CCNCC3)OC2=O)no1 (stereo unspecified)	-1.974
COc1nc2c(cc1C(=O)NCc1nc(CSC)no1)CCC2	-10.56
N#CCCn1nc(C(F)(F)F)c2c1CCCC2	118.8
O=C(NC[C@H]1OC[C@@H](NC2COC2)[C@@H]1O)C1CCCC1	-18.2
Cc1cccc(NC(=O)C2CCc3ccccc3N2)c1.Cl (stereo unspecified)	2.596
Cc1cc2n(n1)CC(CNC1CCN(C(=O)c3ccco3)CC1)CN2 (stereo unspecified)	7.634
NC(=O)NC(=O)CCN1C(=O)CC(Cc2ccc(F)cc2)C1=O (stereo unspecified)	2.732
Cc1noc(-c2ccc(N(C)Cc3cccnc3)nc2)n1	-25.91
Cc1cc(C2CCCCN2C(=O)CN2C(=O)OC(C)(C)C2=O)no1 (stereo unspecified)	120.5
NC(=O)CN1CCN(c2ccnc3c(F)ccc(F)c23)CC1	3.08
CN1CCC(N(CCc2ccccc2)Cc2noc(C3CC3)n2)CC1	8.424
CCNC(=O)N1CC(c2nc(Cc3ccccc3)no2)C1	-5.949
Cn1cc(N2CC3(CCN(S(=O)(=O)C4CC4)C3)CC2=O)cn1 (stereo unspecified)	-15.9
O=C(Nc1ccc(-c2csnn2)cc1)N1CCN2CCCCC2C1 (stereo unspecified)	5.858
Cc1ccccc1[C@@H]1CN(Cc2ccc(C(F)(F)F)nc2)C[C@H]1C(=O)O	28.6
CCCc1nc(CN(CC)C(=O)c2onc3ccccc23)no1	89.45
CCS(=O)(=O)N1CCN(C(=O)c2ccc(Cn3cc(Br)cn3)cc2)CC1	-241.9
Cc1cc(CC(=O)N2CCCC2c2nc(C(C)C)no2)on1 (stereo unspecified)	-3.815
CN1CCN(CCCOc2ccccc2CN2C[C@H]3CC[C@H]2C3)CC1	-24.99
CCN(Cc1noc(C2CC2)n1)C(=O)c1onc2ccccc12	98.35
NS(=O)(=O)c1cnn(-c2ccc(NC(=O)C3CCCCC3)cn2)c1	-15.76
Cc1noc(C)c1C1CCCN1C(=O)CN1C(=O)OC(C)(C)C1=O (stereo unspecified)	87.43
CNc1ncc(-c2ccc(NC(=O)[C@@H]3CCCCN3)cc2)cn1	112.9
Cc1cc(C(=O)N2CC(=O)Nc3cnccc32)c(Cl)cc1F	-6.598
CC(C)c1nccc(C2CC(=O)Nc3n[nH]c(C4CCC4)c32)n1 (stereo unspecified)	111.7
CS(=O)(=O)N1Cc2nccn2CC(Cn2ncccc2=O)C1 (stereo unspecified)	1.411
Cc1ccc2cc(C3(O)CCN(C(=O)[C@@H]4CCCCN4)CC3)ccc2n1	-9.232
O=C(Nc1ccc(-c2cnc(NCCO)nc2)cc1)[C@@H]1CCCCN1	129.4
NC(=O)N1Cc2nccn2CC(Cn2ncccc2=O)C1 (stereo unspecified)	106.3
COCCOCCNC(=O)N1CCc2c(F)ccc(F)c2C1	-0.5371
COc1ccccc1N1CCN(C(=O)Cn2nc(C)cc2C)CC1(C)C	-9.26
Nc1ncc(-c2ccc(NC(=O)[C@@H]3CCCCN3)cc2)cn1	109.3
CN(Cc1nc(-c2cccnc2)no1)C(=O)c1c2c(nn1C)CCCC2	-6.1
CNC(=O)c1n[nH]c2c1C(c1cccc3nsnc13)CC(=O)N2 (stereo unspecified)	1.687
CCO[C@H]1CO[C@@]2(CCCN(S(=O)(=O)c3ccccc3)C2)C1	-23.06
Cc1cnc(C(=O)N[C@H]2CN(CCS(C)(=O)=O)C[C@@H]2C2CC2)cn1	4.986
CN(Cc1cccnc1)CC1CN(C(N)=O)Cc2nccn2C1 (stereo unspecified)	-13.65
O=C(Cc1ccc(F)cc1Cl)N1C[C@@H](CN2CCC(O)CC2)[C@@H](CO)C1	-45.53
CCCc1nc(CN(CC)C(=O)c2ccc(OC)c(OC)c2)no1	-5.69
O=C1CCNC(=O)N1CC(=O)N1CCC1c1ccc(F)cc1 (stereo unspecified)	13.18
O=C(Nc1cnc2n1CCCC2)c1cccc(NC(=O)C2CCCC2)c1	10.86
